Test: Metabolic stability in human liver microsomes
Assay type: in vitro ADME

| Compound | Result units | Metabolic Stability Study H = human |
| --- | --- | --- |
| CC1Cc2cc(CS(=O)(=O)c3ccc(NC(=O)NC(C)c4ccccc4)cc3)ccc2CN1 (centres unmarked) | µL/min/mg | 15 |
| COc1ccccc1C(C)NC(=O)Nc1ccc(S(=O)(=O)Cc2ccc3c(c2)CNC3)cc1 (centres unmarked) | µL/min/mg | 42.4 |
| COc1cc(NC(=O)N(O)C(C)c2ccccc2)ccc1S(=O)(=O)Cc1ccc2c(c1)CN(C)C2 (centres unmarked) | µL/min/mg | 65.2 |
| CC(NC(=O)Nc1ccc(S(=O)(=O)Cc2ccc3c(c2)CC(C)N(C)C3)cc1)c1cccc(Cl)c1Cl (centres unmarked) | µL/min/mg | 137 |
| COc1ccc([C@@H](C)NC(=O)Nc2ccc(S(=O)(=O)Cc3ccc4c(c3)CCN(C)C4)cc2)c(Cl)c1Cl | µL/min/mg | 48.9 |
| C[C@@H](NC(=O)Nc1ccc(S(=O)(=O)Cc2ccc3c(c2)CNC3)cc1)c1ccccc1 | µL/min/mg | 16.6 |
| COc1cc(S(=O)(=O)Cc2ccc3c(c2)CCN(C)C3)ccc1NC(=O)N(O)C(C)c1cccc(Cl)c1Cl.O=C(O)C(F)(F)F (centres unmarked) | µL/min/mg | 100.9 |
| C[C@H](NC(=O)Nc1ccc(S(=O)(=O)Nc2ccc(CC(C)(C)N(C)C)cc2)cc1)c1cccc(Cl)c1Cl | µL/min/mg | 38.2 |

* * *

Biological target: GHSR-1a (HEK293/GHSR1a cell line) (Homo sapiens)
Construct: expressed in transfected cells; host or cells: HEK293/GHSR1a cell line
Sequence (Q92847 whole entry): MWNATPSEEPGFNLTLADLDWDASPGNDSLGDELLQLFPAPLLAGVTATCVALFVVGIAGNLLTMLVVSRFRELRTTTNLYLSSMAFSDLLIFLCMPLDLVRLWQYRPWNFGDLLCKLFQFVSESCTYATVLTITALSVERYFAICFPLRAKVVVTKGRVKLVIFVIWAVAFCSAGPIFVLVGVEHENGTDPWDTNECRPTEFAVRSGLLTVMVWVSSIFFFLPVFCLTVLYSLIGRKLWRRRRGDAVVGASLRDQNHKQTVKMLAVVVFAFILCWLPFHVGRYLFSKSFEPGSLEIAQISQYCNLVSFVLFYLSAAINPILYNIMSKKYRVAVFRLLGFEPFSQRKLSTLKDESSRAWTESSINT
Test: Ghrelin antagonist potency (IC50) with calcium FLIPR assay, ghrelin 10 nM
Type: cell-based
Conditions: HEK293/GHSR1a, ghrelin 10 nM, read-out: Activity IC50 (ghrelin antagonist potency)
pIC50: −log10 of the molar value.
// label = class 1 if pIC50 is not less than 7, otherwise class 0

| Compound | Category label |
| --- | --- |
| CC(NC(=O)Nc1ccc(S(=O)(=O)Cc2cc3c(s2)CCN(C)C3)cc1)c1cccc(Cl)c1Cl (stereo not shown) [H1359] | class 1 |
| CC(NC(=O)Nc1ccc(S(=O)(=O)Cc2ccc3c(c2F)CNC3)cc1)c1c(F)cccc1F (stereo not shown) [H1410] | class 1 |
| C[C@H](NC(=O)Nc1ccc2c(c1)C=C(c1ccc3c(c1)CNC3)S2(=O)=O)c1ccccc1 [H1270] | class 1 |
| COc1cc(S(=O)(=O)Cc2ccc3c(c2)CCNC3)ccc1NC(=O)N(C)C(C)c1ccccc1 (stereo not shown) [H1413] | class 0 |
| COc1cc(S(=O)(=O)Cc2ccc3c(c2)CNC3)ccc1NC(=O)NC(C)c1cccc2ccccc12.O=C(O)C(F)(F)F (stereo not shown) [H1419] | class 1 |
| COc1ccc(C(C)NC(=O)Nc2ccc(S(=O)(=O)Cc3ccc4c(c3)CN(C)C4)cc2)cc1OC (stereo not shown) [H1449] | class 0 |
| COc1cc(S(=O)(=O)Cc2ccc3c(c2)CN(C)C3)ccc1NC(=O)NC(C)c1ccccc1F (stereo not shown) [H1426] | class 1 |
| CC(NC(=O)Nc1ccc(S(=O)(=O)Cc2ccc3c(c2)CCN(C)C3)cc1)c1cccc(F)c1F (stereo not shown) [H1345] | class 1 |
| COc1cc(S(=O)(=O)Cc2ccc(CO)cc2)ccc1NC(=O)NC(C)c1ccc(OC)c(Cl)c1Cl (stereo not shown) [H1435] | class 0 |
| CC(c1ccccc1)N(C)C(=O)Nc1ccc(S(=O)(=O)Cc2ccc3c(c2F)CNC3)cc1 (stereo not shown) [H1409] | class 0 |
| COc1ccc(C(C)NC(=O)Nc2ccc3c(c2)CC(c2ccc4c(c2)CNC4)S3(=O)=O)cc1 (stereo not shown) [H1297] | class 1 |
| COCCN1Cc2ccc(CS(=O)(=O)c3ccc(NC(=O)NC(C)c4ccccc4)cc3)cc2C1 (stereo not shown) [H1338] | class 1 |

Reference source: patent US10501479B2
